Subject Of Test: B-Raf kinase (Homo sapiens)
Construct: purchased Sigma
Assay Info: Biochemical assay for B-Raf (coupled pyruvate kinase/lactate dehydrogenase)
Condition Set: Table 5; read-out: BRAF
pIC50: −log10 of the molar value.
Metric: pIC50

Bench note, B-Raf kinase (Homo sapiens): entry Cc1ccc(NC(=O)c2ccnc(C(F)(F)F)c2)cc1-c1cc(OCCO)nc(N2CCOCC2)c1 [Naporafenib, reference compound] , its pIC50 = > 7.00

* * *

Measured pIC50 accompanies every entry in the list below.
Subject Of Test: B-Raf kinase (Homo sapiens, UniProt P15056)
Construct: purchased Sigma
Sequence (P15056 416-766): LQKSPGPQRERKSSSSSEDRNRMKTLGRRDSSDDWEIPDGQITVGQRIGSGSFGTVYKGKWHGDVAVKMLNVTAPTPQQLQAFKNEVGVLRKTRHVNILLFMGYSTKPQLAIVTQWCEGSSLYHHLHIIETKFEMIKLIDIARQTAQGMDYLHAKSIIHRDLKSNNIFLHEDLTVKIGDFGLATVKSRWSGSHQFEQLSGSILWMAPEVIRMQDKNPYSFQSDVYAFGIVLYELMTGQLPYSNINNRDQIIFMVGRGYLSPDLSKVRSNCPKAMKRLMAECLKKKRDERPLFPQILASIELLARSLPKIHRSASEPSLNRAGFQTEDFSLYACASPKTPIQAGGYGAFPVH
Assay Info: Biochemical assay for B-Raf (coupled pyruvate kinase/lactate dehydrogenase)
Condition Set: Table 1, inhibition of biochemical activity; read-out: BRAF
pIC50: −log10 of the molar value.

Use these answered entries as a reference point.
| Compound Smiles | Metric | Experimental Value |
| --- | --- | --- |
| CNC(=O)c1cc(-c2cc(-c3cc(NC(=O)c4cc(C5CC5)cnn4)ccc3C)cc(NCCO)n2)ccn1 | pIC50 | > 7.00 |
| Cc1ccc(NC(=O)c2ccc(C(F)(F)F)nc2)cc1-c1cncc(-c2ccnc(C(N)=O)c2)c1 | pIC50 | 6.00 to 6.30 |
| CNC(=O)c1cc(-c2cc(-c3cc(NC(=O)c4cc(C#N)cnn4)ccc3C)cc(NCCO)n2)ccn1 | pIC50 | > 7.00 |

Attention now shifts to the item below.
Kindly note the recorded pIC50 for CNC(=O)c1cc(-c2cc(-c3cc(NC(=N)c4cc(C5CC5)cnn4)ccc3C)ccn2)ccn1 , which is 6.00 to 6.30

* * *

Measured pIC50 accompanies every entry in the list below.
Subject Of Test: C-Raf kinase (Homo sapiens, UniProt P04049, Y340D/Y341D)
Construct: C-Raf residues 306-end; Y340D, Y341D with N-; purchased Sigma
Sequence (P04049 307-648 Y340D/Y341D): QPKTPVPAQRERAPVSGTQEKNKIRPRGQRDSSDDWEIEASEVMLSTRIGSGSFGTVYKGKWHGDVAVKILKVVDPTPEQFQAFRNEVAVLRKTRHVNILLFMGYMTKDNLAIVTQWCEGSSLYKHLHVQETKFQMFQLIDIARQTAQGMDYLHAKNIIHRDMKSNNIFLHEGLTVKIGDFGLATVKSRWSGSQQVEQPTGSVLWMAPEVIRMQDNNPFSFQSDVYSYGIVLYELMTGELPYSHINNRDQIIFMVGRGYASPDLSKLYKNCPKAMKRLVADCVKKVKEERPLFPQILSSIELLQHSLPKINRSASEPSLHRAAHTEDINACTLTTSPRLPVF
Assay Info: Biochemical assay for C-Raf (coupled pyruvate kinase/lactate dehydrogenase)
Condition Set: Table 1, inhibition of biochemical activity; read-out: CRAF
pIC50: −log10 of the molar value.

Use these answered entries as a reference point.
| Compound Smiles | Experimental Value |
| --- | --- |
| CNC(=O)c1cc(-c2cncc(-c3cc(NC(=O)c4cc(C5CC5)cnn4)ccc3C)c2)ncn1 | > 7.00 |
| CNC(=O)c1cc(-c2cc(-c3cc(NC(=O)c4cc(C(C)(F)F)cnn4)ccc3C)cc(NCCO)n2)ccn1 | > 7.00 |

Kindly note the recorded pIC50 for CNC(=O)c1cc(-c2cc(-c3cc(NC(=O)c4cc(C#N)cnn4)ccc3C)cc(NCCO)n2)ccn1 , which is > 7.00

Kindly note the recorded pIC50 for CNC(=O)c1cc(-c2cc(-c3cc(NC(=O)c4cc(C(C)(F)F)cnn4)ccc3C)ccn2)ccn1 , which is > 7.00

Kindly note the recorded pIC50 for CNC(=O)c1cc(-c2cc(-c3cc(NC(=N)c4cc(C(F)(F)F)cnn4)ccc3C)ccn2)ccn1 , which is 6.30 to 7.00

* * *

Test system: MiaPaca-2 cells
Assay Info: MiaPaca-2 cell proliferation assay (resazurin)
Assay type: cell-based
Condition Set: Homo sapiens, MIA PaCa-2; Table 2, inhibition of cell proliferation; read-out: MiaPaca-2
Metric: IC50

| Compound Smiles | IC50 |
| --- | --- |
| CNC(=O)c1cc(-c2cc(-c3cc(NC(=O)c4cc(C(C)(F)F)cnn4)ccc3C)cc(NCCO)n2)ccn1 | < 100 nM |
| CNC(=O)c1cc(-c2cc(-c3cc(NC(=O)c4cnc(C(F)(F)F)nc4)ccc3C)ccn2)ccn1 | 500 to 1000 nM |

Kindly note the recorded IC50 for CNC(=O)c1cc(-c2cc(-c3cc(NC(=O)c4cc(C(F)(F)F)cnn4)ccc3C)cc(NCCO)n2)ccn1 , which is < 100 nM

Kindly note the recorded IC50 for Cc1ccc(NC(=O)c2ccc(C(F)(F)F)nc2)cc1-c1cncc(-c2ccnc(C(N)=O)c2)c1 , which is 1000 to 10000 nM

Kindly note the recorded IC50 for CNC(=O)c1cc(-c2cncc(-c3cc(NC(=O)c4cc(C(F)(F)F)cnn4)ccc3C)c2)ccn1 , which is 500 to 1000 nM

Kindly note the recorded IC50 for CNC(=O)c1cc(-c2cc(-c3cc(NC(=O)c4cc(C(N)=O)cnn4)ccc3C)cc(OCCO)n2)ccn1 , which is 1000 to 10000 nM

Kindly note the recorded IC50 for CNC(=O)c1cc(-c2cc(-c3cc(NC(=O)c4cc(C5CC5)cnn4)ccc3C)nc(NCCO)n2)ccn1 , which is 500 to 1000 nM

// provenance: patent US20260176260A1
